Origin of the recorded values: BindingDB's records for doi:10.1110/ps.0229303

Molecular target: Peptide deformylase (Staphylococcus aureus (strain Mu50 / ATCC 700699), UniProt P68825)
Sequence (P68825 whole entry): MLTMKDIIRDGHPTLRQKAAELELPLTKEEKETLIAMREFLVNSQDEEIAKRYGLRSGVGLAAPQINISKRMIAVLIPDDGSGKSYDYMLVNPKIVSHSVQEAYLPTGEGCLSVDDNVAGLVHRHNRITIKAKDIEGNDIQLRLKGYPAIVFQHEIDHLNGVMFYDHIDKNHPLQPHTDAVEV
Assay: PDF Inhibition Assay
Details: pH 7.6; 25 °C
valueType: IC50 (µM)
Respond numerically; units are µM and should not be typed.

**Q:** Quick check: IC50 on Peptide deformylase (Staphylococcus aureus (strain Mu50 / ATCC 700699), UniProt P68825), item O=CN(O)CCCc1ccccc1 [N-hydroxy-N-(3-phenylpropyl)formamide] ?
**A:** 0.25

###

Biological target: Peptide deformylase (Streptococcus pneumoniae (strain ATCC BAA-255 / R6))
Sequence (Q8DP79 whole entry): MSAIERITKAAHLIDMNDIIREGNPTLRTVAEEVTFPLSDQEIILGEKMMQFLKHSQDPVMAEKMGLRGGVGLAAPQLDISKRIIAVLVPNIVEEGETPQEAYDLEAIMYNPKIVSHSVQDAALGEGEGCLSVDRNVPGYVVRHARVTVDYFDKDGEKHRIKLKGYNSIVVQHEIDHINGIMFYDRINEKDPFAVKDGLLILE
Test: PDF Inhibition Assay
Details: pH 7.6; 25 °C
valueType: pIC50
By convention, pIC50 is the negative base-10 log of a molar concentration.

**Q:** Record request: pIC50 value, item O=CN(O)CCCc1ccccc1 [N-hydroxy-N-(3-phenylpropyl)formamide]
**A:** 6.40

###

Biological target: Peptide deformylase (Escherichia coli (strain K12), UniProt P0A6K3)
Sequence (P0A6K3 whole entry): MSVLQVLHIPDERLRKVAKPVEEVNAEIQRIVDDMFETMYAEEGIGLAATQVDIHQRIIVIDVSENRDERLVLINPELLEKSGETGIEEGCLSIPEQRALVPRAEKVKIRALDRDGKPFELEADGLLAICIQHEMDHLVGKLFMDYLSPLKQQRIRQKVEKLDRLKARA
Test: PDF Inhibition Assay
Details: pH 7.6; 25 °C
valueType: pIC50
Value format note: pIC50 is -log10 of concentration (mol/L); just state the number.

**Q:** Returns the measured pIC50 for the input compound. Input: O=CN(O)CCCc1ccccc1 [N-hydroxy-N-(3-phenylpropyl)formamide]
**A:** 6.80
